assayOverview: Cmax in Sprague-Dawley rat at 25 mg/kg, po by HPLC/MS analysis
Assay type: ADME, organism-based
Parameters: dose 25 mg/kg, route oral
testSettings: in vivo
readoutName: Cmax (ng/mL)

1) CCc1ccc(C(=O)Nc2cc(CN3CCN(C)CC3)cc(C(F)(F)F)c2)cc1C#Cc1cnc2ccnn2c1 = 1870
2) CN1CCN(Cc2cc(NC(=O)c3cccc(C#Cc4cnc5ccnn5c4)c3)cc(C(F)(F)F)c2)CC1 = 1770

---

assayOverview: AUC (0 to infinity) in Sprague-Dawley rat at 25 mg/kg, po by HPLC/MS analysis
Type: ADME, organism-based
Parameters: time infinity, dose 25 mg/kg, route oral
testSettings: plasma
readoutName: AUC(0-inf) (ng·h/mL)

[I] CCc1ccc(C(=O)Nc2cc(CN3CCN(C)CC3)cc(C(F)(F)F)c2)cc1C#Cc1cnc2ccnn2c1
[II] CN1CCN(Cc2cc(NC(=O)c3cccc(C#Cc4cnc5ccnn5c4)c3)cc(C(F)(F)F)c2)CC1
Q: Thinking about recorded AUC(0-inf) values, which is higher, I or II ? To answer, give the label that identifies your chosen option.
Result: I
